I'd be grateful if you could share measured binding signal for these entries.
- system-name: T1, RBFOX1 RRM (Homo sapiens, UniProt Q9NWB1 109-208)
- T1 sequence: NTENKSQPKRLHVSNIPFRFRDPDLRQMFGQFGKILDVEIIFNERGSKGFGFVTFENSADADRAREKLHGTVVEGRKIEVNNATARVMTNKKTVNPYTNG
- protocol-notes: EMSA; HiTS-Eq, 1 nM pool, 10 min; buffer printed only for the single-RNA assays: 10 mM Tris pH 7.5, 150 mM NaCl, 3.4 mM EDTA, 0.001% NP-40, 30 C
- protocol-conditions: tags: His6 N-terminal (pET28a); label: 5' 32P
The full ranking holds about 16,000 sequences; the median of “ka relative to ugcaugu” is about 0.0091, and the highest 2% start at about 0.032. The entries come from a sample that favours the highest values as a whole.

Please report the measured binding signal for GCGCAGU (DNA:RNA) RNA: GGGAGACCGGAAUUCAGAUUGUCCGCGCAGUUUAAAUCCCGUCGUAGCCACCA DNA 1: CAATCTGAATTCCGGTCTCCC DNA 2: TGGTGGCTACGACGGGATT 0.0136 KA relative to UGCAUGU

Please report the measured binding signal for UACAGCU (DNA:RNA) RNA: GGGAGACCGGAAUUCAGAUUGUCCUACAGCUUUAAAUCCCGUCGUAGCCACCA DNA 1: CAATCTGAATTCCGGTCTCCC DNA 2: TGGTGGCTACGACGGGATT 0.00395 KA relative to UGCAUGU
